Each entry below carries its reported T/C.
# Test system: Mus musculus
# assay remarks: In vivo antitumor activity was measured in mice (P388 leukemia) at dose 200 mg/kg after intraperitoneal administration
# Type: functional
Give just the number in %; leave the unit off.

Req: Entry CCOC(/C=C/c1ccccc1)c1ccc(C(C)C)cc(=O)c1O (stereo unspecified) , system Mus musculus: what T/C was measured?
Resp: 100

Req: Entry O=c1ccccc(C2OCCc3ccccc32)c1O (stereo unspecified) , system Mus musculus: what T/C was measured?
Resp: 96

Req: Entry CCOC(c1ccc(Cl)cc1)c1ccc(C(C)C)cc(=O)c1O (stereo unspecified) , system Mus musculus: what T/C was measured?
Resp: 109
